# TEST DETAILS: Liver microsome metabolic stability assay
# MEASUREMENT CONDITIONS: mouse, microsomes
ATTRIBUTE MEASURED: half-life at 1 µM (min)
Give the number; min is assumed, so skip it.

Problem: Which half-life at 1 µM reading was recorded for the compound Cc1ncc2n1-c1ccc(Cl)cc1C(c1ccccc1F)=NC2 [Midazolam, reference compound] ?
Solution: 1.24

----------
# SYSTEM TESTED: PI3Kγ (PIK3CG) (Homo sapiens)
# Sequence (P48736 whole entry): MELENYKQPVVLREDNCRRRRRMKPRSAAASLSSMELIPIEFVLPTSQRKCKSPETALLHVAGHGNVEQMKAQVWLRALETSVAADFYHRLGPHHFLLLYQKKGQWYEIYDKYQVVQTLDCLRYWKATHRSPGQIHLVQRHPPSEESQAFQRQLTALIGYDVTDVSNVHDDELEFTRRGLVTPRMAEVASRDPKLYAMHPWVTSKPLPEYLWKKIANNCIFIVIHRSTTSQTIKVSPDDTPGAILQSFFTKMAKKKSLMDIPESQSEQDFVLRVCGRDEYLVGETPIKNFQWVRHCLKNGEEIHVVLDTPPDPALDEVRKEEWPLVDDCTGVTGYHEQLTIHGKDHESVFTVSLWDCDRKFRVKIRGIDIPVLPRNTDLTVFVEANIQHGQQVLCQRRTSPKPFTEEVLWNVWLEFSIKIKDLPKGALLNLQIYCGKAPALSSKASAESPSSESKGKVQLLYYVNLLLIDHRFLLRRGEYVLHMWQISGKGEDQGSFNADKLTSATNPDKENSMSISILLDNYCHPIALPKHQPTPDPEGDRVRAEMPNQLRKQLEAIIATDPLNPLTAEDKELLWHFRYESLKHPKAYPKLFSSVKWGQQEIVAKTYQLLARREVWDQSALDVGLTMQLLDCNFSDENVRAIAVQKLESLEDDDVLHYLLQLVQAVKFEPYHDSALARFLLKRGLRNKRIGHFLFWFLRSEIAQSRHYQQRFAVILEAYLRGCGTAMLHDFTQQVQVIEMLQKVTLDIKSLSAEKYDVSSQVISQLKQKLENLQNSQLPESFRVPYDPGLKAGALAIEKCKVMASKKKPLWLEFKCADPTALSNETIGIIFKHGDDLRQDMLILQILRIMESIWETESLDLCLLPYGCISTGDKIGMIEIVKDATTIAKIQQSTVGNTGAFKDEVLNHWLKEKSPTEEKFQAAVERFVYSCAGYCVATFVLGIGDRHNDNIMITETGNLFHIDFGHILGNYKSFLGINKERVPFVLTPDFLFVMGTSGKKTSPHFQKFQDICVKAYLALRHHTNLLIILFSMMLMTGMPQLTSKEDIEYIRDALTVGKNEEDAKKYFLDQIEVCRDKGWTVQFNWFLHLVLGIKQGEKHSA
ATTRIBUTE MEASURED: IC50

Problem: Which IC50 reading was recorded for the compound `COc1cc(N)cc2c1nc(C(F)F)n2-c1nc(N2CCCOCC2)nc(N2CCOCC2)n1` ?
Solution: 17.1 nM
